biological target: pre-existing anti-scFv903 antibodies in human serum H40 (human); experiment: competition ADA bridging ELISA
PARAMETER MEASURED: signal change in competition ELISA (% reduction in OD) (%)

- BINDER: "scFv 903 (scFv) scFv: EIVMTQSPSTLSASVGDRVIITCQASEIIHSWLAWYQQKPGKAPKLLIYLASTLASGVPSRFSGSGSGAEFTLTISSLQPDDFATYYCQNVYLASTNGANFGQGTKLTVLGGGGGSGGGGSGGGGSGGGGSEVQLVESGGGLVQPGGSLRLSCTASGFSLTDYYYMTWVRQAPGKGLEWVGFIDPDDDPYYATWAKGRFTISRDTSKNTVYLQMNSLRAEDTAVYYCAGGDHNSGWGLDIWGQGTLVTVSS"
  MEAS VALUE: -95
- BINDER: "scFv 791 (scFv) scFv: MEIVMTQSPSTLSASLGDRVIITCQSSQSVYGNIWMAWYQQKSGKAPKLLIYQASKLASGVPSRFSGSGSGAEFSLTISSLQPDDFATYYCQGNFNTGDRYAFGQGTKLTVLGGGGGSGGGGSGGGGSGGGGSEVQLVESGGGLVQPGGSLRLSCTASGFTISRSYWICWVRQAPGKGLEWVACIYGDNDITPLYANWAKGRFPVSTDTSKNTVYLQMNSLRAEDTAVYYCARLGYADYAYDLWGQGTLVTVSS"
  MEAS VALUE: -95
- BINDER: "scFv105 (scFv) scFv: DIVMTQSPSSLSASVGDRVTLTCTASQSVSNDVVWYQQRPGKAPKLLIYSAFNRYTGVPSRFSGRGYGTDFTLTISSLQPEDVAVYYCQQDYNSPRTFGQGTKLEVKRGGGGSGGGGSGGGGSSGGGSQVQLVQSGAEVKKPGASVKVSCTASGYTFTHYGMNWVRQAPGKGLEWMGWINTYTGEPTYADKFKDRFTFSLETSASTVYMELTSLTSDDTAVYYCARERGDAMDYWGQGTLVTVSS"
  MEAS VALUE: 4
